endpoint_name: melting point

Exercise: Return melting point for the following molecule: CCC(CC)CC1(O)CCN(C(=O)Nc2cc(Oc3ccc(F)cc3)cc(Oc3ccc4c(c3)CCNC4=O)c2)CC1 [Compound 28c]
Key: 81 to 83 °C

Exercise: Return melting point for the following molecule: CCC(CC)CC1(O)CCN(C(=O)Nc2cc(Oc3ccc(F)cc3)cc(Sc3ccc(S(C)(=O)=O)cc3)c2)CC1 [Compound 28e]
Key: 78 to 80 °C

Exercise: Return melting point for the following molecule: CCC(CC)CC1(O)CCN(C(=O)Nc2cc(Oc3ccc(F)cc3)cc(Oc3ccc(OC)cc3)c2)CC1 [Compound 28a]
Key: 79 to 80 °C

Exercise: Return melting point for the following molecule: CC(C)CC1(O)CCN(C(=O)Nc2cc(Oc3ccc(F)cc3)cc(Oc3ccc(C(=O)NCCF)cc3)c2)CC1 [Compound 28f]
Key: 81 to 83 °C

----------
Target: Human recombinant sphingosine-1-phosphate receptor 2 (Homo sapiens)
Sequence (O95136 whole entry): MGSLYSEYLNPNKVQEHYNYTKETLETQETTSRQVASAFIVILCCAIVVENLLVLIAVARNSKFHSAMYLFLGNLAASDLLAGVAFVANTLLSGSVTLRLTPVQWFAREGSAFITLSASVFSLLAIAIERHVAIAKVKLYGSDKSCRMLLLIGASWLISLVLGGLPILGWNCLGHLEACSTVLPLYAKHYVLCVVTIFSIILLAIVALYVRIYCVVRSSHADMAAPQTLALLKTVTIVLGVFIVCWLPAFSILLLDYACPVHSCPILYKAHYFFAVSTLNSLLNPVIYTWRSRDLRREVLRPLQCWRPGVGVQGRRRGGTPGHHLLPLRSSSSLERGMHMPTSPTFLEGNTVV
Experiment: biochemical
endpoint_name: pKd
# reply with the number alone; pKd is -log10 of concentration in mol/L

Exercise: Return pKd for the following compound: COc1ccc(NC(=O)Cn2c(=O)c3ccccc3n(CC(=O)Nc3cc([125I])c(OC)cc3OC)c2=O)cc1 [[^125I]34]
Key: 8.37

----------
Kindly supply the reported melting point values for the records listed here.

Exercise: Return melting point for the following compound: CCC(CC)CC1(O)CCN(C(=O)Nc2cc(Oc3ccc(F)cc3)cc(Oc3ccc(C(=O)NCCF)cc3)c2)CC1 [Compound 28d]
Key: 79 to 82 °C

Exercise: Return melting point for the following compound: CC(C)CC1(O)CCN(C(=O)Nc2cc(Oc3ccc(F)cc3)cc(Sc3ccc(S(C)(=O)=O)cc3)c2)CC1 [Compound 28g]
Key: 79 to 81 °C

Exercise: Return melting point for the following compound: CCC(CC)CC1(O)CCN(C(=O)Nc2cc(Oc3ccc(F)cc3)cc(C(F)(F)F)c2)CC1 [Compound 17c]
Key: 108 to 111 °C

Exercise: Return melting point for the following compound: CCC(CC)CC1(O)CCN(C(=O)Nc2cc(Oc3ccc(F)cc3)cc(Oc3ccc4c(c3)CCN(C)C4=O)c2)CC1 [Compound 28b]
Key: 80 to 82 °C

----------
Target: S1PR2 (Homo sapiens)
Construct: purchased
Sequence (O95136 whole entry): as above
Experiment: competitive [^32P]S1P binding assay on cell membranes, S1PR2
Conditions: [^32P]S1P competition, IC50 ± SD, Table 1 (2a-l, 4a-h); read-out: IC50 (binding potency toward S1PR2)
Rule for this label: Yes means IC50 is less than 60 nM; No means IC50 is at least 60 nM.

Exercise: Is IC50 of COc1cc(OC)c(NC(=O)Cn2c(=O)n(CC(=O)N(C)C)c(=O)c3ccccc32)cc1Cl [Compound 2l] strictly below 60 nM?
Key: No

Exercise: Is IC50 of COc1cc(OC)c(NC(=O)Cn2c(=O)n(CC(=O)Nc3cc(Cl)nc(Cl)c3)c(=O)c3ccccc32)cc1Cl [Compound 2g] strictly below 60 nM?
Key: No

Exercise: Is IC50 of CNC(=O)Cn1c(=O)c2ccccc2n(CC(=O)Nc2cc(Cl)c(OC)cc2OC)c1=O [Compound 2k] strictly below 60 nM?
Key: No

Exercise: Is IC50 of COc1cc(OC)c(NC(=O)Cn2c(=O)n(CC(=O)NCCOCCO)c(=O)c3ccccc32)cc1Cl [Compound 2i] strictly below 60 nM?
Key: No

Exercise: Is IC50 of COc1cccc(NC(=O)Cn2c(=O)c3ccccc3n(CC(=O)Nc3cc(Cl)c(OC)cc3OC)c2=O)c1 [Compound 2b] strictly below 60 nM?
Key: Yes
